Data origin, for the record: the supplement of paper PMC10567573

B1: PCMTD2 (parent)
chain: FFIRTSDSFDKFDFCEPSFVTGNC

Variants of: B1
protocol-details: protein stability index of a GFP-peptide fusion (GPS, HEK-293T) (PSI 1-6); higher = more stable;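 note: lentivirally expressed fusions sorted by FACS into six bins by GFP to DsRed ratio, PSI derived from sequencing read proportions per bin multiplied by bin number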
setup-conditions: c terminus: a fixed tail appended
result-type: protein stability index
Output: the number by itself.

"P17D" yielded protein stability index of 1.47

Value of measured protein stability index for the entry "S18K" : 3.26

The measured protein stability index associated with "N23E" reads 2.27

Kindly note the recorded protein stability index for "C15R" , which is 2.15

Documented protein stability index of "C15H" : 2.62

Consider "S6N" . Its measured protein stability index is 3.26

So for "K11Y" , the logged protein stability index turned out to be 3.27

# protein stability index of "S6K" = 2.59

The value of protein stability index measured for the variant "T5P" turned out to be 3.1

Sure, the documented protein stability index for "C24R" is 2.27

"D13Y" yielded protein stability index of 1.6

Please fill in: protein stability index reported for "D10S" = 2.22

Recorded protein stability index (variant "E16P" ): 1.87

Sample "S8C" ; protein stability index observed: 3.14

Record summary for "F2C" : reported protein stability index = 1.92

Lab book: protein stability index of "F19N" noted as 1.64

Data point: "K11I" ; protein stability index = 3.4

// "S6P" : protein stability index value = 2.53

Just so you know, measured protein stability index for "F19W" came out at 3.83

Notebook: "C15S" , protein stability index read as 2.04

"N23R" yielded protein stability index of 2.88

Item: "D7T" | protein stability index: 3.2

protein stability index for "G22V" is 4.43

The recorded protein stability index for "C24T" is 2.24

Please fill in: protein stability index reported for "F1W" = 2.04

protein stability index in this record for "R4G" : 1.31

Input "F19S" . Output protein stability index: 1.66

The value of protein stability index measured for the variant "F1Y" turned out to be 2.39

The value of protein stability index measured for the variant "S6Q" turned out to be 3.19

Entry under test: "F2E" . Its protein stability index was 2.15

What the record says about "T21H" : protein stability index is 1.47

So for "V20A" , the logged protein stability index turned out to be 2.2

The variant listed as "F2Q" has a reported protein stability index of 2.06

Value of protein stability index reported for the variant "V20H" is 2.32

protein stability index in this record for "D10E" : 2.27

Per the record, "G22H" has protein stability index of 3.63

Notebook: "F14L" , protein stability index read as 1.91

Per the records, this variant ( "R4Y" ) has protein stability index equal to 2.93

Lab note: measured protein stability index of "F12H" was 2.07

Record "S18D" . Reported protein stability index: 2.42

Noted for "K11M" : its protein stability index reads 4.28

Recorded protein stability index (variant "F12I" ): 2.05

Lab note: "F14I" gave protein stability index of 2.31

The measured protein stability index associated with "N23W" reads 2.05

According to the records, this variant "E16G" displays protein stability index of 2.2

What the record says about "F12M" : protein stability index is 2.05

// field: protein stability index; key: "F12G" ; value = 2.05

So, "V20C" ? Its protein stability index was 2.37

Query "E16V" yields protein stability index of 2.9

In plain terms, "F12N" has a documented protein stability index of 1.61

protein stability index in this record for "F14G" : 1.82

The variant "C15P" showed protein stability index equal to 3.43

Looking up "T21Q" , I see its protein stability index listed as 2.22

Entry "F9V" — recorded protein stability index = 1.75

The recorded protein stability index for "S8W" is 4

// sample "R4M" , its protein stability index was 4.34

Reported protein stability index of "G22K" : 2.1

protein stability index recorded for this variant, "G22P" , is 3.09

The variant "S8H" showed protein stability index equal to 3.25

So, "F14H" ? Its protein stability index was 1.94

For this variant ( "N23A" ), measured protein stability index is 2.62

Reported protein stability index of "S8I" : 2.54

// field: protein stability index; key: "F12E" ; value = 1.92

The variant identified as "V20K" registered its protein stability index at 1.86

Recorded protein stability index (variant "D13L" ): 3.27

"D13V" has a reported protein stability index of 3.37

Item: "K11P" | protein stability index: 2.72

So for "E16S" , the logged protein stability index turned out to be 2.04

Summary for this variant, "S8T" : protein stability index is 1.61

Form field protein stability index, entry "S8D" : 1.95

Reported protein stability index of "F12P" : 1.61

Reported protein stability index of "I3P" : 1.9
